What follows is a collection of GI50 values obtained with SK-OV-3 (ovarian).
Experimental Readout: GI50 (nM)

>>> value_measured("COc1ccc2c(c1F)CCCC=C2c1cc(OC)c(OC)c(OC)c1")
0.00724
>>> value_measured("COc1cc(C2=CCCCc3c2ccc(OC)c3OP(=O)(O)O)cc(OC)c1OC")
5.94
>>> value_measured("COc1cc2c(c(OC)c1O)CCCC=C2c1cc(OC)c(OC)c(OC)c1")
7130
>>> value_measured("COc1ccc2c(c1)CCCC=C2c1cc(OC)c(OC)c(OC)c1")
36.6
>>> value_measured("COc1ccc2c(c1Cl)CCCC=C2c1cc(OC)c(OC)c(OC)c1")
39.9
>>> value_measured("COc1cc(C2=CCCCc3ccccc32)cc(OC)c1OC")
19100
